Numbers sourced from patent US20190127480A1.

# measured_target: T1, human CD3 expressed on cells (Jurkat cells, a CD3+ human T-cell line; human PBMC T cells) (human, UniProt P07766 23-207; P04234 22-171)
# T1 construct: Cell-surface CD3 within the T cell receptor complex
# T1 sequence (P07766 23-207 limits assumed, chain 1 of 2): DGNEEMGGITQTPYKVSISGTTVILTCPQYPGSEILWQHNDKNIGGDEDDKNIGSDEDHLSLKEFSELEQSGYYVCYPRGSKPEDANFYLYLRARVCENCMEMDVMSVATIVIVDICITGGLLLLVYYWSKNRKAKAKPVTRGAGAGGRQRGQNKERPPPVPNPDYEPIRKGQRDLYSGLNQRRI
# T1 sequence (P04234 22-171 limits assumed, chain 2 of 2): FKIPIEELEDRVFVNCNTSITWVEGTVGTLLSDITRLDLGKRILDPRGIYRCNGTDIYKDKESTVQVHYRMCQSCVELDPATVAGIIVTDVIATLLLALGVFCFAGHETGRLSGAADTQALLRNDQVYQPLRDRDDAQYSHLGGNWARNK
# run_description: FACS on Jurkat cells
measurement_kind: EC50 (nM)
Entry rule: numbers only, all in nM.

Query: EC50; subject: H2M2706N (antibody, mouse IgG2, V domains shown, H2M: mouse IgG2 Fc, human variable regions; divalent) VH: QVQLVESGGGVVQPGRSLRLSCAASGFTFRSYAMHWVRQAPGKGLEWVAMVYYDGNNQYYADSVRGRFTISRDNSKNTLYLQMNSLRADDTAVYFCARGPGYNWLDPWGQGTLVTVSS VL: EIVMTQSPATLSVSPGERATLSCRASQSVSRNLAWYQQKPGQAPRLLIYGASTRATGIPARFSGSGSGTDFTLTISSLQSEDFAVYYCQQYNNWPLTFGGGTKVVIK
Reply: 2.37
